Target: transcriptional switch components containing FKBP and 2098L mutant FRB domains (Homo sapiens, UniProt P42345+P62942)
Construct: transcriptional switchcomponents containing FKBP and 2098L mutant FRB domains, respectively; fused on or other part: The two switch components are separate chimeric proteins; Neither is given for this cell line
Sequence (P62942 2-108 limits assumed, stated change not applied, other chains not shown): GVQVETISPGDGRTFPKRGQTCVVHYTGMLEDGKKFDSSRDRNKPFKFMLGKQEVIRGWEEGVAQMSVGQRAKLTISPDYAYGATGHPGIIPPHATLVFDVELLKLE
Assay: transcription assay in engineered HD1080 cells expressing SEAP (txn 2098L)
Format: cell-based
Details: cellular transcription assay, methods of Example 2.5; read-out: TXN 2098L EC50
Outcome Measure: EC50

What the record says about CO[C@@H]1C[C@H](C[C@@H](C)[C@@H]2CC(=O)[C@H](C)/C=C(\C)[C@H](O)[C@@H](OC)C(=O)[C@H](C)C[C@H](C)/C=C/C=C/C=C(\C)[C@H](N(C)S(=O)(=O)N(C)c3ccccc3)C[C@@H]3CC[C@@H](C)[C@@](O)(O3)C(=O)C(=O)N3CCCC[C@H]3C(=O)O2)CC[C@H]1O [28-epi-7R-N-Me-methylphenylsulfamide] : EC50 is 8 nM

response.value for COC1CC(CC(C)C2CC(=O)C(C)C=C(C)C(O)C(OC)C(=O)C(C)CC(C)C=CC=CC=C(C)C(NC(=O)Oc3ccccc3)CC3CCC(C)C(O)(O3)C(=O)C(=O)N3CCCCC3C(=O)O2)CCC1O (stereo not drawn) [28-epi-7R-phenylcarbamate] (field: EC50) = 10 nM

Form: compound = CCOC1CC2CCC(C)C(O)(O2)C(=O)C(=O)N2CCCCC2C(=O)OC(C(C)CC2CCC(O)C(OC)C2)CC(=O)C(C)C=C(C)C(O)C(OC)C(=O)C(C)CC(C)C=CC=CC=C1C (stereo not drawn) [28-epi-7R-ethoxy] ; EC50 = 33 nM

For COC1CC(CC(C)C2CC(=O)C(C)C=C(C)C(O)C(OC)C(=O)C(C)CC(C)C=CC=CC=C(C)C(OCc3ccccc3)CC3CCC(C)C(O)(O3)C(=O)C(=O)N3CCCCC3C(=O)O2)CCC1O (single isomer, unassigned) [28-epi-7R-benzyloxy] the compound record lists EC50 as 14 nM

Record summary for COC1CC(CC(C)C2CC(=O)C(C)C=C(C)C(O)C(OC)C(=O)C(C)CC(C)C=CC=CC=C(C)C(OCCC3CCCCC3)CC3CCC(C)C(O)(O3)C(=O)C(=O)N3CCCCC3C(=O)O2)CCC1O (stereo not drawn) [28-epi-7S-cyclohexylethyloxy] : reported EC50 = 76 nM

Recorded EC50 (compound COc1ccccc1COC1CC2CCC(C)C(O)(O2)C(=O)C(=O)N2CCCCC2C(=O)OC(C(C)CC2CCC(O)C(OC)C2)CC(=O)C(C)C=C(C)C(O)C(OC)C(=O)C(C)CC(C)C=CC=CC=C1C (single isomer, unassigned) [28-epi-7S-2′-methoxybenzyloxy] ): 15 nM

The compound COC1CC(CC(C)C2CC(=O)C(C)C=C(C)C(O)C(OC)C(=O)C(C)CC(C)C=CC=CC=C(C)C(c3ccc(C)s3)CC3CCC(C)C(O)(O3)C(=O)C(=O)N3CCCCC3C(=O)O2)CCC1O (stereo not drawn) [28-epi-7S-methylthiophene] showed EC50 equal to 25 nM

The reported measurements were obtained from patent US7196192B2.
